Below is a list of entries, each paired with its recorded IC50 value.
# Tested system: DOR (Homo sapiens, UniProt P41143)
# Sequence (P41143 whole entry): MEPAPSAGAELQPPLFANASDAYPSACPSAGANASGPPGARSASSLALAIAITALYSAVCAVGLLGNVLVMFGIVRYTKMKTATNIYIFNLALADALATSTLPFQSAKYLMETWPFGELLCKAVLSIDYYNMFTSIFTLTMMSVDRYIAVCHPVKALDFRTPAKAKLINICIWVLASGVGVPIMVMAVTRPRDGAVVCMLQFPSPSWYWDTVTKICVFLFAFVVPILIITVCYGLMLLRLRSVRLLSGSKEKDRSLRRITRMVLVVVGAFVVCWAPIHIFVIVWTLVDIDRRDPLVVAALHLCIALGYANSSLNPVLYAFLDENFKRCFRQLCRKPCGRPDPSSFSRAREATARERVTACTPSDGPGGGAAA
# Experiment description: GloSensor assay at DOR
# Study conditions: given as Log IC50 (negative values)
Measured metric: IC50

In [3]: df
Out[3]:
                                   compound   result
0  Clc1ccc(-c2c3c4[nH]c5ccccc5c4cc[n+]3cn2-c2ccc(Br)cc2)cc1.[Cl-] [8adb]  > 10 µM
1  Brc1ccc2[nH]c3c(cc[n+]4cn(-c5ccccc5)c(-c5ccccc5Br)c34)c2c1 [8cca]  > 10 µM
2  Fc1ccc(-n2c[n+]3c4ccccc4c4c5ccccc5[nH]c4c3c2-c2ccccc2)cc1 [12ad]  > 10 µM
3  Fc1ccc(-c2c3c4[nH]c5ccccc5c4cc[n+]3cn2-c2cccc(Br)c2)cc1 [8age]  > 10 µM
